Where these numbers come from: paper PMC6747318

- MEASUREMENT NOTES: UV spectroscopy binding between compounds: binding to amphetamine
- RECORDED CONDITIONS: read-out: Kd @ 200 nm, binding to Amph, high affinity binding; double curve, first value
OBSERVED PROPERTY: Kd (µM)

>>> df
                                   molecule  measurement
0  COc1cc(CC(=O)O)ccc1O [Homovanillic Acid]          1.5

---

- ASSAYED SYSTEM: methionine-enkephalin (Homo sapiens, UniProt P01210)
- MEASUREMENT NOTES: UV spectroscopy binding between compounds: binding to methionine-enkephalin
- Parameters: M-Enk = methionine-enkephalin; purchased Sigma-Aldrich
- RECORDED CONDITIONS: read-out: Kd @ 200 nm, binding to M-Enk, low affinity binding; double curve, second value; listed as propranolol
pKd: −log10 of the molar value.
OBSERVED PROPERTY: pKd

>>> df
                                   compound                            assayed_system  measurement
0  CC(C)NCC(O)COc1cccc2ccccc12 (stereo not shown) [Propranolol]  methionine-enkephalin (Homo sapiens, UniProt P01210)        ~4.46

---

- MEASUREMENT NOTES: UV spectroscopy binding between compounds: binding to amphetamine
- RECORDED CONDITIONS: read-out: Kd @ 200 nm, binding to Amph; UV spectroscopy, pH 7.4 sodium phosphate buffer; single binding constant
So basically, if Kd comes in under 70 µM it's True, and if it's 70 µM or more it's False.

In [3]: df
Out[3]:
                                   compound  answer_label
0  N[C@@H](Cc1ccccc1)C(=O)O [Phenylalanine]         False
1  CC(C)NCC(O)c1ccc(O)c(O)c1 (stereo not drawn) [Isoproterenol]          True
2                 NCCc1ccc(O)cc1 [Tyramine]          True
3  N[C@@H](Cc1ccc(O)c(O)c1)C(=O)O [L-DOPA, L-3,4-dihydroxyphenylalanine]          True

---

Overview of reported Kd across a group of compounds:
- MEASUREMENT NOTES: UV spectroscopy binding between compounds: binding to propranolol
- RECORDED CONDITIONS: read-out: Kd @ 200 nm, binding to Prop, high affinity binding; double curve, first value
Where a name gives a salt, the structure may show the parent alone.
OBSERVED PROPERTY: Kd

                                   compound  measurement
0  CNC[C@H](O)c1ccc(O)c(O)c1 [Epinephrine HCl]        45 µM
1  CC(C)(C)NCC(O)c1ccc(O)c(CO)c1 (centres unmarked) [Salbutamol]         1 µM

---

- ASSAYED SYSTEM: methionine-enkephalin (Homo sapiens, UniProt P01210)
- MEASUREMENT NOTES: UV spectroscopy binding between compounds: binding to methionine-enkephalin
- Parameters: M-Enk = methionine-enkephalin; purchased Sigma-Aldrich
- RECORDED CONDITIONS: Kd @ 200 nm, binding to M-Enk, UV spectroscopy, pH 7.4 sodium phosphate buffer; single binding constant
So basically, if Kd comes in under 40 µM it's criterion met, and if it's 40 µM or more it's criterion not met.

>>> print(df.to_string())
                                    compound       answer_label
 0                         NCCc1ccc(O)c(O)c1      criterion met
 1      NCC(O)c1ccc(O)cc1 (stereo not drawn)  criterion not met
 2  N[C@@H](Cc1ccc(O)c(O)c1)C(=O)O [L-DOPA, L-3,4-dihydroxyphenylalanine]  criterion not met
 3         CC(N)Cc1ccccc1 (stereo not drawn)  criterion not met
 4                      CC(=O)OCC[N+](C)(C)C  criterion not met
 5             COc1ccc2[nH]cc(CCNC(C)=O)c2c1  criterion not met
 6                             NCCc1c[nH]cn1  criterion not met
 7                            NCCc1ccc(O)cc1      criterion met
 8                    NCCc1c[nH]c2ccc(O)cc12  criterion not met
 9                      COc1cc(CC(=O)O)ccc1O  criterion not met
10  CC(C)(C)NCC(O)c1ccc(O)c(CO)c1 (stereo not drawn)      criterion met

---

- ASSAYED SYSTEM: methionine-enkephalin (Homo sapiens, UniProt P01210)
- MEASUREMENT NOTES: UV spectroscopy binding between compounds: binding to methionine-enkephalin
- Design: M-Enk = methionine-enkephalin; purchased Sigma-Aldrich
- RECORDED CONDITIONS: UV spectroscopy, pH 7.4 sodium phosphate buffer; single binding constant; read-out: Kd @ 200 nm, binding to M-Enk
OBSERVED PROPERTY: Kd

>>> df
               molecule_smiles  measurement
0     N[C@@H](Cc1ccccc1)C(=O)O    > 1000 µM
1  N[C@@H](Cc1ccc(O)cc1)C(=O)O    > 1000 µM

---

- MEASUREMENT NOTES: UV spectroscopy binding between compounds: binding to riboflavin
- RECORDED CONDITIONS: pH 7.4 sodium phosphate buffer, read-out: Kd @ 200 nm, binding to Ribo
OBSERVED PROPERTY: Kd

>>> print(df.to_string())
                                   compound  observed_property  measurement
0    CNC[C@H](O)c1cccc(O)c1 [Phenylephrine]                 Kd       > 1 mM
1    N[C@@H](Cc1ccc(O)cc1)C(=O)O [Tyrosine]                 Kd       > 1 mM
2  NCC(O)c1ccc(O)cc1 (stereo not shown) [Octopamine]                 Kd      0.03 mM
3                 NCCc1c[nH]cn1 [Histamine]                 Kd       > 1 mM

---

Overview of reported Kd across a group of compounds:
- ASSAYED SYSTEM: beta 2 adrenergic receptor (B2AR) 175–188 (Homo sapiens, UniProt P07550)
- Construct: B2AR 175–188
- MEASUREMENT NOTES: UV spectroscopy binding to receptor peptide B2AR 175–188
- RECORDED CONDITIONS: single binding constant; read-out: Kd @ 200 nm, B2AR 175–188
OBSERVED PROPERTY: Kd

                            molecule_smiles  observed_property  measurement
0                    NCCc1c[nH]c2ccc(O)cc12                 Kd    > 1000 µM
1                             NCCc1c[nH]cn1                 Kd    > 1000 µM
2  CSCC[C@H](NC(=O)[C@H](Cc1ccccc1)NC(=O)CNC(=O)CNC(=O)[C@@H](N)Cc1ccc(O)cc1)C(=O)O                 Kd       700 µM

---

- MEASUREMENT NOTES: UV spectroscopy binding between compounds: binding to morphine sulfate
- RECORDED CONDITIONS: read-out: Kd @ 200 nm, binding to Morph, high affinity binding; double curve, first value
Where a name gives a salt, the structure may show the parent alone.
OBSERVED PROPERTY: Kd (nM)

                                   compound  observed_property  measurement
0  CNC[C@H](O)c1ccc(O)c(O)c1 [Epinephrine HCl]                 Kd          300

---

- MEASUREMENT NOTES: UV spectroscopy binding between compounds: binding to methadone
- RECORDED CONDITIONS: pH 7.4 sodium phosphate buffer, read-out: Kd @ 200 nm, binding to Meth
Structures can show the parent of a compound that is named as a salt.
Overview of reported log10 of Kd across a group of compounds:
OBSERVED PROPERTY: log10 of Kd (log10 of the value in µM)

In [3]: df
Out[3]:
                                   compound  measurement
0                    NCCc1c[nH]c2ccc(O)cc12         1.65
1             COc1ccc2[nH]cc(CCNC(C)=O)c2c1         2.48
2               N[C@@H](Cc1ccc(O)cc1)C(=O)O         2.40
3                         NCCc1ccc(O)c(O)c1         2.30
4  N[C@@H](Cc1ccc(O)c(O)c1)C(=O)O [L-DOPA, L-3,4-dihydroxyphenylalanine]         1.90
5  NC[C@H](O)c1ccc(O)c(O)c1 [Norepinephrine HCl]         1.85
6  CC(C)NCC(O)c1ccc(O)c(O)c1 (centres unmarked)         1.11
7                            NCCc1ccc(O)cc1         2.32
